Experiment: Drug level in Sprague-Dawley rat plasma at 100 mg/kg, po after 0.5 hr
Type: ADME, organism-based
Parameters: dose 100 mg/kg, route oral
measured_parameter: concentration at 0.5 h

Annotate the compound `NCCc1cn(S(=O)(=O)c2c(Cl)nc3sccn23)c2ccccc12` with its measured concentration at 0.5 h.
356 ng/mL

====

Experiment: Drug level in Sprague-Dawley rat brain at 3 mg/kg, ip after 2 hrs
Type: ADME, organism-based
Set-up: dose 3 mg/kg, route intraperitoneal
Settings: read-out: Drug uptake
measured_parameter: concentration at 2 h (ng/mL)
Answers are plain numbers, in ng/mL.

Give the reported value of concentration at 2 h for this record: `NCCc1cn(S(=O)(=O)c2c(Cl)nc3sccn23)c2ccccc12`
1.1

====

Experiment: Ratio of drug level in brain to plasma in Sprague-Dawley rat at 3 mg/kg, ip after 0.25 hr
Assay type: ADME, organism-based
Design: dose 3 mg/kg, route intraperitoneal
Details: read-out: BPR
measured_parameter: Kp at 0.25 h
Give bare numbers.

Return reported Kp at 0.25 h. Input molecule: `NCCc1cn(S(=O)(=O)c2c(Cl)nc3sccn23)c2ccccc12`
0.09

====

Assay: Drug level in Sprague-Dawley rat brain at 100 mg/kg, po after 4 hrs
Type: ADME, organism-based
Parameters: dose 100 mg/kg, route oral
Conditions: read-out: Drug uptake
measured_parameter: concentration at 4 h (ng/mL)
Give bare numbers, in ng/mL.

Find the measured concentration at 4 h of `NCCc1cn(S(=O)(=O)c2c(Cl)nc3sccn23)c2ccccc12` and report it.
98

====

Assay: Half life in rat at 1 mg/kg, iv
Format: ADME, organism-based
Set-up: dose 1 mg/kg, route intravenous
Details: in vivo
measured_parameter: half-life

Please indicate half-life recorded for `NCCc1cn(S(=O)(=O)c2c(Cl)nc3sccn23)c2ccccc12`
5.4 h

====

Test: Drug level in Sprague-Dawley rat brain at 100 mg/kg, po after 0.25 hr
Type: ADME, organism-based
Set-up: dose 100 mg/kg, route oral
Conditions: read-out: Drug uptake
measured_parameter: concentration at 0.25 h (µg/mL)
Give bare numbers, in µg/mL.

Give me measured concentration at 0.25 h, please, for this compound: `NCCc1cn(S(=O)(=O)c2c(Cl)nc3sccn23)c2ccccc12`
0.0125

====

Test: Ratio of drug level in brain to plasma in Sprague-Dawley rat at 100 mg/kg, po after 2 hrs
Format: ADME, organism-based
Parameters: dose 100 mg/kg, route oral
Conditions: read-out: BPR
measured_parameter: Kp at 2 h
Give bare numbers.

Could you please provide reported Kp at 2 h for `NCCc1cn(S(=O)(=O)c2c(Cl)nc3sccn23)c2ccccc12` ? Thanks!
0.25

====

Assay: Aqueous solubility at pH 8
Format: physicochemical
measured_parameter: solubility (µg/mL)
One number for each entry, in µg/mL.

Given `NCCc1cn(S(=O)(=O)c2c(Cl)nc3sccn23)c2ccccc12` , respond with its solubility.
240

====

Assay: Metabolic stability in rat liver microsomes
Format: ADME, Microsome
measured_parameter: half-life
Number plus unit, in that order.

Using the record for `NCCc1cn(S(=O)(=O)c2c(Cl)nc3sccn23)c2ccccc12` , state its measured half-life.
8 min

====

Test: Half life in dog at 5 mg/kg, po
Type: ADME, organism-based, Canis lupus familiaris
Parameters: dose 5 mg/kg, route oral
Conditions: in vivo
measured_parameter: half-life (h)
One number for each entry, in h.

Identify measured half-life corresponding to `NCCc1cn(S(=O)(=O)c2c(Cl)nc3sccn23)c2ccccc12`
6.6

====

Experiment: Clearance in rat at 1 mg/kg, iv
Format: ADME, organism-based
Design: dose 1 mg/kg, route intravenous
Details: in vivo
measured_parameter: clearance (mL/min/kg)
Numbers only, in mL/min/kg.

Quick one: give measured clearance for `NCCc1cn(S(=O)(=O)c2c(Cl)nc3sccn23)c2ccccc12`
123

====

Assay: Ratio of drug level in brain to plasma in Sprague-Dawley rat at 3 mg/kg, ip after 1 hr
Format: ADME, organism-based
Design: dose 3 mg/kg, route intraperitoneal
Conditions: read-out: BPR
measured_parameter: Kp at 1 h
Answers are plain numbers.

Give the measured Kp at 1 h for `NCCc1cn(S(=O)(=O)c2c(Cl)nc3sccn23)c2ccccc12`
0.68

====

Assay: Ratio of drug level in brain to plasma in Sprague-Dawley rat at 100 mg/kg, po after 1 hr
Assay type: ADME, organism-based
Design: dose 100 mg/kg, route oral
Conditions: read-out: BPR
measured_parameter: Kp at 1 h
Numbers only.

Give the value of Kp at 1 h reported for the following: `NCCc1cn(S(=O)(=O)c2c(Cl)nc3sccn23)c2ccccc12`
0.14

====

Experiment: Metabolic stability in human liver microsomes
Format: ADME, Microsome
measured_parameter: half-life

Supply recorded half-life for `NCCc1cn(S(=O)(=O)c2c(Cl)nc3sccn23)c2ccccc12` here.
> 1 h

====

Test: Drug level in Sprague-Dawley rat brain at 3 mg/kg, ip after 1 hr
Assay type: ADME, organism-based
Parameters: dose 3 mg/kg, route intraperitoneal
Settings: read-out: Drug uptake
measured_parameter: concentration at 1 h (ng/mL)
One number for each entry, in ng/mL.

# return recorded concentration at 1 h for input `NCCc1cn(S(=O)(=O)c2c(Cl)nc3sccn23)c2ccccc12`
14.2

====

Assay: Ratio of drug level in brain to plasma in Sprague-Dawley rat at 100 mg/kg, po after 4 hrs
Assay type: ADME, organism-based
Set-up: dose 100 mg/kg, route oral
Settings: read-out: BPR
measured_parameter: Kp at 4 h
One number for each entry.

Item `NCCc1cn(S(=O)(=O)c2c(Cl)nc3sccn23)c2ccccc12` : provide Kp at 4 h
0.26

====

Experiment: Metabolic stability in dog liver microsomes
Format: ADME, Canis lupus familiaris, Microsome
measured_parameter: half-life (min)
Numbers only, in min.

Supply reported half-life belonging to this molecule: `NCCc1cn(S(=O)(=O)c2c(Cl)nc3sccn23)c2ccccc12`
26

====

Experiment: Drug level in Sprague-Dawley rat brain at 3 mg/kg, ip after 0.25 hr
Type: ADME, organism-based
Set-up: dose 3 mg/kg, route intraperitoneal
Details: read-out: Drug uptake
measured_parameter: concentration at 0.25 h (ng/mL)
One number for each entry, in ng/mL.

Please give the documented concentration at 0.25 h of `NCCc1cn(S(=O)(=O)c2c(Cl)nc3sccn23)c2ccccc12`
8.4

====

Target: 5-hydroxytryptamine receptor 6 (Homo sapiens, UniProt P50406)
Sequence (P50406 whole entry): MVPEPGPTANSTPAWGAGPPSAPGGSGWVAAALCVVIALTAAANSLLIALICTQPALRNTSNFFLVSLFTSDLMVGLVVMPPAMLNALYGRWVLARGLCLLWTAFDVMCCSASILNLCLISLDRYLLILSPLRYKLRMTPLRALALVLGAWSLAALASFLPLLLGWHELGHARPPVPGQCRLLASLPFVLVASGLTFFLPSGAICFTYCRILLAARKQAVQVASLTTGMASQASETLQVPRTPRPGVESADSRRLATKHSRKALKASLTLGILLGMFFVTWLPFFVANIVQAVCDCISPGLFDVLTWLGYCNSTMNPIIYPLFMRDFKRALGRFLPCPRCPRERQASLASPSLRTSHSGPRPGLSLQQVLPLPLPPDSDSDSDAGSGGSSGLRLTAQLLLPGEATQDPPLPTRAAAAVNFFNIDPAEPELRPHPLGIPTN
Assay: Antagonist activity at human 5HT6 receptor expressed in HeLa cells assessed as cAMP production
Please respond with reported pIC50 for every item in the list.
Answers are plain numbers, as −log10 of the molar value.

CN1C=C(S(=O)(=O)n2cc(CCN)c3ccccc32)SC1N (configuration not stated) :: 8.02

Kindly review the next compound as well.
Look up and state reported pIC50 for `COc1ccc(S(=O)(=O)n2cc(CCN)c3ccccc32)cc1OC`
7.76

====

Assay: Drug level in Sprague-Dawley rat brain at 100 mg/kg, po after 0.5 hr
Type: ADME, organism-based
Set-up: dose 100 mg/kg, route oral
Settings: read-out: Drug uptake
measured_parameter: concentration at 0.5 h (ng/mL)
One number for each entry, in ng/mL.

Please list concentration at 0.5 h recorded for the compound `NCCc1cn(S(=O)(=O)c2c(Cl)nc3sccn23)c2ccccc12`
194

====

Assay: Ratio of drug level in brain to plasma in Sprague-Dawley rat at 3 mg/kg, ip after 4 hrs
Assay type: ADME, organism-based
Set-up: dose 3 mg/kg, route intraperitoneal
Settings: read-out: BPR
measured_parameter: Kp at 4 h
One number for each entry.

Consider the compound `NCCc1cn(S(=O)(=O)c2c(Cl)nc3sccn23)c2ccccc12` and give its recorded Kp at 4 h.
1.39

====

Test: Drug level in Sprague-Dawley rat plasma at 3 mg/kg, ip after 4 hrs
Format: ADME, organism-based
Parameters: dose 3 mg/kg, route intraperitoneal
measured_parameter: concentration at 4 h (ng/mL)
Answers are plain numbers, in ng/mL.

Name the recorded concentration at 4 h of the compound listed here: `NCCc1cn(S(=O)(=O)c2c(Cl)nc3sccn23)c2ccccc12`
4.3

====

Record form. Attribute: EC50. Fill in for each entry.
Biological target: 5-hydroxytryptamine receptor 6 (Homo sapiens, UniProt P50406)
Assay: Agonist activity at human 5HT6 receptor expressed in HeLa cells assessed as cAMP production
One number for each entry, in nM.

NCCc1cn(S(=O)(=O)c2cccc(Cl)c2)c2ccccc12 :: 108

Dear colleague, could you send me EC50 for each of the items below? Thanks.
1. NCCc1cn(S(=O)(=O)c2ccccc2Br)c2ccccc12
2. NCCc1cn(S(=O)(=O)c2ccccc2)c2ccccc12

148
73

Give the observed EC50 of `NCCc1cn(S(=O)(=O)c2ccc(N)cc2)c2ccccc12` for 5-hydroxytryptamine receptor 6 (Homo sapiens, UniProt P50406).
91

src = ChEMBL document CHEMBL1138245
